Cited source for all entries: patent US9579319B2

// reported pIC50 for each item listed
# Tested on: Hedgehog signalling pathway
# ASSAY_METHOD_TEXT: Gli-reporter NIH3T3 luciferase assay (Hedgehog pathway inhibition)
# Assay type: cell-based
# PARTICULARS: NIH3T3; Gli-reporter NIH-3T3 cells, recombinant mouse sonic hedgehog, 24 hours, luminescence; read-out: Category (Hedgehog pathway inhibition activity, IC50)
pIC50: −log10 of the molar value.

Below, 5 molecules whose answers are already recorded.
CC(=O)N(Cc1ccc(F)cc1C(F)(F)F)C1CCN(c2nnc(-c3ccnn3C)c3ccccc23)CC1 [Example 77]
6.70 to 8.00
CN(Cc1ccc(F)cc1C(F)(F)F)C1CCN(c2ccc(-c3ccnn3C)nn2)CC1 [Example 42]
> 8.00
Cn1nccc1-c1nnc(N2CCC(NCc3ccccc3[N+](=O)[O-])CC2)c2ccccc12 [Example 31]
6.70 to 8.00
COc1ccccc1CNC1CCN(c2nnc(-c3ccnn3C)c3ccccc23)CC1 [Example 69]
5.70 to 6.70
CSc1ccccc1CNC1CCN(c2nnc(-c3ccnn3C)c3ccccc23)CC1 [Example 17]
6.70 to 8.00

Problem: I would be grateful if you could share the reported pIC50 for CN(C1CCN(c2nnc(-c3ccnn3C)c3ccccc23)CC1)S(=O)(=O)c1ccc(F)cc1C(F)(F)F [Example 48] .
Result: > 8.00

Problem: I would be grateful if you could share the reported pIC50 for Cn1nccc1-c1nnc(N2CCC(Nc3ccc(F)cc3C(F)(F)F)CC2)c2ccccc12 [Example 53] .
Result: > 8.00

Problem: I would be grateful if you could share the reported pIC50 for Cc1ccccc1CN(C)C1CCN(c2nnc(-c3ccnn3C)c3ccccc23)CC1 [Example 30] .
Result: > 8.00
